Molecular target: Bromodomain-containing protein 9 (Homo sapiens, UniProt Q9H8M2)
Sequence (Q9H8M2 whole entry): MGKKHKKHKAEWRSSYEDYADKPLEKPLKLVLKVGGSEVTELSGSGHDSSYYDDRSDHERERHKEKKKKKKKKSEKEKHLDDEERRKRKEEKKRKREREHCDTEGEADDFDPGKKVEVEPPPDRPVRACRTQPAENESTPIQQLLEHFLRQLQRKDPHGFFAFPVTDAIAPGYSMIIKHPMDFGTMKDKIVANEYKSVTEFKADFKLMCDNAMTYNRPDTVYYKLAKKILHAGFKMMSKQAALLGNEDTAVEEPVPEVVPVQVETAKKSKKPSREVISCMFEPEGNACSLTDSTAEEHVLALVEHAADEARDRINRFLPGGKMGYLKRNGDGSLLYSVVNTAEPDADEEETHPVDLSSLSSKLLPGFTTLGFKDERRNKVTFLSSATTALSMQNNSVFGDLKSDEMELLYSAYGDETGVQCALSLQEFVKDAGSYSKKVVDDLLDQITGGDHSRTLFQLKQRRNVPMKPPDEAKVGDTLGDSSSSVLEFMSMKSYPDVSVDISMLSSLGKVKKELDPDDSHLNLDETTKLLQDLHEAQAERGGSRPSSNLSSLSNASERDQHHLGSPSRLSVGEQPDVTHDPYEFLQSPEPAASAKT
Assay: Binding affinity to human recombinant biotinylated BRD9 compound treated in PBS buffer by FAC-MS analysis
PROPERTY MEASURED: pKd
In plain terms, pKd is the concentration in mol/L turned into minus its base-10 logarithm.

### Prompt Hello, I am looking for reported pKd with Bromodomain-containing protein 9 (Homo sapiens, UniProt Q9H8M2) for `Cc1nnc2c(NC(=O)OC(C)(C)C)cc(-c3ccccc3)nn12` . Could you help?
### Response 5.08
